- assay.notes: Biodistribution of 67Ga-radiolabeled peptides
- Design: species or system mouse
- study.conditions: female, CD1, mouse, in vivo, iv, 100 uCi, total radioactivity, Tissue distribution, Spleen
Residues, ends and D or L forms follow the SMILES beside them. *: point of attachment. NODAGA = O=C(O)CN1CCN(CC(=O)O)CCN(C(CCC(=O)*)C(=O)O)CC1
endpoint.name: tissue uptake at 1 h (%ID/g)
// note: answer is a bare numeric in %ID/g

compound	units.text	tissue uptake at 1 h
CC[C@H](C)[C@H](NC(=O)[C@H](Cc1c[nH]cn1)NC(=O)CCC(C(=O)O)N1CCN(CC(=O)O)CCN(CC(=O)O)CC1)C(=O)N[C@@H](CCC(N)=O)C(=O)N[C@@H](CC(C)C)C(=O)N[C@@H](CO)C(=O)N1CCC[C@H]1C(=O)N[C@@H](Cc1ccccc1)C(=O)N[C@@H](CO)C(=O)N[C@@H](CCC(N)=O)C(=O)N[C@@H](CO)C(=O)N[C@@H](Cc1c[nH]c2ccccc12)C(=O)N[C@@H](CCCNC(=N)N)C(N)=O (stereo partly shown) [67Ga-BBBpS_5, metal not drawn] ({NODAGA}-HIQLSPFSQSWR-NH2)	%ID/g	0.3
CC(C)C[C@H](NC(=O)[C@H](Cc1c[nH]c2ccccc12)NC(=O)[C@H](Cc1ccccc1)NC(=O)[C@H](CCC(N)=O)NC(=O)[C@H](C)NC(=O)[C@H](CO)NC(=O)[C@H](CC(=O)O)NC(=O)[C@@H]1CCCN1C(=O)[C@H](CCCNC(=N)N)NC(=O)[C@H](CC(N)=O)NC(=O)CCC(C(=O)O)N1CCN(CC(=O)O)CCN(CC(=O)O)CC1)C(=O)N[C@@H](Cc1c[nH]cn1)C(=O)N[C@@H](Cc1c[nH]cn1)C(N)=O (stereo partly shown) [67Ga-BBBpS_9, metal not drawn] ({NODAGA}-NRPDSAQFWLHH-NH2)	%ID/g	0.9

Give tissue uptake at 1 h for CC[C@H](C)[C@H](NC(=O)[C@H](C)NC(=O)CNC(=O)[C@H](CCCCN)NC(=O)[C@H](Cc1ccc(O)cc1)NC(=O)[C@H](CCCCN)NC(=O)CCC(C(=O)O)N1CCN(CC(=O)O)CCN(CC(=O)O)CC1)C(=O)N[C@H](C(=O)NCC(=O)N[C@@H](CC(N)=O)C(=O)N[C@H](C(=O)N[C@@H](CCCCN)C(N)=O)[C@@H](C)CC)[C@@H](C)CC (stereo partly shown) [67Ga-BBBpS_1, metal not drawn] ({NODAGA}-KYKGAIIGNIK-NH2)
0.2

Give tissue uptake at 1 h for CC[C@H](C)[C@H](NC(=O)[C@H](C)NC(=O)CNC(=O)[C@H](CO)NC(=O)[C@H](CCCNC(=N)N)NC(=O)[C@H](Cc1ccc(O)cc1)NC(=O)[C@H](CCCCN)NC(=O)CCC(C(=O)O)N1CCN(CC(=O)O)CCN(CC(=O)O)CC1)C(=O)N[C@H](C(=O)N[C@H](C(=O)NCC(=O)N[C@@H](Cc1ccc(O)cc1)C(N)=O)[C@@H](C)CC)[C@@H](C)O (stereo partly shown) [67Ga-BBBpS_2, metal not drawn] ({NODAGA}-KYRSGAITIGY-NH2)
0.5

Just for reference, paper PMC11131246 is where these values come from.
